Tested on: HCT-15 colon
assay: NCI-60 one-dose screen, 48 h (100 = growth as untreated, 0 = no growth, -100 = all killed)
experimental.context: 10 µM unless noted
Compounds without any hit were thinned out: in the full panel of roughly 83,000, 20% have a hit.
Binary label based on growth with cut-off 30%: below gives 1, not below gives -1.

Below, 2 compounds whose answers are already recorded.
O=C(/C=C/c1cn(-c2ccccc2)nc1-c1ccc(Cl)cc1)c1ccc(F)cc1 ... -1
COc1cc(NS(=O)(=O)c2ccc(-c3cnc(C4CC4)o3)cc2)ccc1F ... 1

API: query returns whether the compound falls strictly under 30% in growth. Query: "CC(=O)/C(=C\c1c(-c2ccccc2)[nH]c2ccccc12)S(C)(=O)=O"
1

API: query returns whether the compound falls strictly under 30% in growth. Query: "COCCn1cc(-c2nc(-c3cc4cccnc4[nH]3)cs2)c2cc(OC)ccc21"
1

API: query returns whether the compound falls strictly under 30% in growth. Query: "COc1ccc(-c2ccc(-c3ccc(C(=N)N)cc3)s2)cc1Cl"
1

API: query returns whether the compound falls strictly under 30% in growth. Query: "COc1ccc(-c2ccc(=O)oc2-c2cc(OC)c(OC)c(OC)c2)cc1O"
1

API: query returns whether the compound falls strictly under 30% in growth. Query: Cc1nc2sc(C(=O)Nc3ccc(Br)cc3)c(N)c2cc1C(O)c1ccccc1 (stereo not given)
-1

API: query returns whether the compound falls strictly under 30% in growth. Query: "COc1cc(/C=C2/C=C(c3ccccc3)N(CCc3ccc(S(N)(=O)=O)cc3)C2=O)cc(OC)c1OC"
-1

###

Tested on: UO-31 renal
assay: NCI-60 one-dose screen, 48 h (100 = growth as untreated, 0 = no growth, -100 = all killed)
experimental.context: 10 µM unless noted
This is part of a sample that, as a whole, favours compounds with a hit. Of some 83,000 tested, about 20% had one in any assay. Calls of active or inactive are those of the source. How the source made its calls: active means growth percent below 10; inactive means the rest.
assay.readout: growth

COc1c(C(=O)Nc2ccc(C)c(Br)c2)ccc2ccccc12 ... 85.5% (inactive)
C/C(Cc1ccc(Cl)cc1)=C(\c1ccc(O)cc1)c1ccc(Cl)cc1 ... 85.1% (inactive)
COc1ccc(-c2nc3cc(C(=O)NCc4ccccc4)ccc3n2C2CCCCC2)cc1 ... 61.6% (inactive)
COC(=O)/C=C1/SC(=Nc2cccc(OC)c2)N(CCc2c[nH]c3ccc(O)cc23)C1=O ... 55.7% (inactive)
CC(C)Cn1cnc2c(=O)[nH]c(N)nc21 ... 94.4% (inactive)

Hi! Can you tell me growth for each of these compounds?
1. Cc1c(-c2ccc(O)cc2)n(Cc2ccc(OCCN3CCCCCC3)cc2)c2ccc(O)cc12
2. CSc1oc(C)nc1[P+](c1ccccc1)(c1ccccc1)c1ccccc1
3. CCOc1ccccc1Cn1ccnc1CCc1c(Cl)c(O)cc(O)c1C(=O)OC
4. NC(N)=NCCCCCNc1noc(Cc2c[nH]c3cc(Br)ccc23)n1

52.6% (inactive)
102% (inactive)
78.9% (inactive)
80.2% (inactive)

Hi! Can you tell me growth for each of these compounds?
1. Fc1ccc(CNc2c3ccccc3nc3ccccc23)c(F)c1
2. CC(=O)O[C@@H]1C[C@]2(C(C)C)O[C@@]1(C)[C@@H]1CCC(C)=C1[C@@H]2OC(=O)/C=C/c1ccccc1
3. CCCn1cc2c(=O)nc3sc(Cc4ccccc4)c(C)n3c2n1

1: 30.3% (inactive); 2: 60.5% (inactive); 3: 78.5% (inactive)

Hi! Can you tell me growth for each of these compounds?
1. CCOC(=O)c1cc(C(=O)c2cc(OC)c(OC)c(OC)c2)n2ncccc12
2. CC1=NC2=Nn3c(c4cnn(-c5ccccc5)c4n/c3=N\N)NN2C(c2ccccc2)=C1
3. COc1cc(-c2nccc3[nH]c(-c4ccc5cc[nH]c5c4)nc23)cc(OC)c1OC

1: 39.8% (inactive); 2: 70.3% (inactive); 3: 13.6% (inactive)

Hi! Can you tell me growth for each of these compounds?
1. NS(=O)(=O)c1ccc(N=Nc2c(O)n(Cc3ccccc3)c3ccc(Cl)cc23)cc1
2. CCN(CC)Cc1cc(C=C2C(=O)NC(=S)NC2=O)cc(OC)c1O

1: 81.2% (inactive); 2: 90.1% (inactive)
